target.under.test: T1, recombinant purified human Nectin-4-Fc fusion protein (human, UniProt Q96NY8 32-349)
T1 construct: Bought ('Aero Biosystems' as printed); not shown: Fc part of the bought fusion protein; captured by anti-human IgG Fc sensors
T1 sequence: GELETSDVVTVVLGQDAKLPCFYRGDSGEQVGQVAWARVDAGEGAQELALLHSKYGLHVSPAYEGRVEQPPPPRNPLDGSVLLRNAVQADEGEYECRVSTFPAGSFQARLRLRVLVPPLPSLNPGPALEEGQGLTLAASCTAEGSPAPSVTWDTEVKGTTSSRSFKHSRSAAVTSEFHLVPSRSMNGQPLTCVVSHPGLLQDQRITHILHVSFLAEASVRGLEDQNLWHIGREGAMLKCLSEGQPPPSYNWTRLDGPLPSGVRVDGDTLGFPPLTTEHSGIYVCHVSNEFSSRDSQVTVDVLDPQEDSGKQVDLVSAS
experiment.description: BLI (Octet), Nectin-4-Fc on anti-human Fc sensors, run 2
endpoint.name: koff

Use the examples below as a reference point.
LV1184xVδ2 (bispecific antibody, Orientation N-term-anti-Nectin-4 VHH-linker-anti-Vδ2 VHH (5C8); no Fc; also called Nectin-4xVδ2 bispecific VHH) EVQLVESGGGLVQAGGSLRLSCAASGSISSINLMGWFRQAPAKQRELVTSISPGGSVRYADSVKGRFTISRDVAKNTVDLQMNSLKPEDTAVYYCAAESERTYYFDSWGQGTQVTVSSGGGGSEVQLVESGGGLVQAGGSLRLSCAASGRPFSNYAMGWFRQAPGKEREFVAAISWSGGSTSYADSVKGRFTISRDNAKNTVYLQMNSPKPEDTAIYYCAAQFSGADYGFGRLGIRGYEYDYWGQGTQVTVSS	0.000149 s⁻¹
LV1185xVδ2 (bispecific antibody, Orientation N-term-anti-Nectin-4 VHH-linker-anti-Vδ2 VHH (5C8); no Fc; also called Nectin-4xVδ2 bispecific VHH) EVQLVESGGGLVQAGGSLRLSCAASRSTFSLNIMGWYRQAPGKQREYVATITTGGSTNYADSVRGRFTISRDNAEDTVYLQMNSLKPEDTAVYYCTAELVRRGPTTYWGRGTQVTVSSGGGGSEVQLVESGGGLVQAGGSLRLSCAASGRPFSNYAMGWFRQAPGKEREFVAAISWSGGSTSYADSVKGRFTISRDNAKNTVYLQMNSPKPEDTAIYYCAAQFSGADYGFGRLGIRGYEYDYWGQGTQVTVSS	0.00144 s⁻¹
LV1181xVδ2 (bispecific antibody, Orientation N-term-anti-Nectin-4 VHH-linker-anti-Vδ2 VHH (5C8); no Fc; also called Nectin-4xVδ2 bispecific VHH) EVQLVESGGGLVQAGGSLRLSCAASGSISSINLMGWHRQAPGKQRELVATITRGGSTNYADSVKGRFTISRDNGKNTVYLQMNSLKPEDTAAYYCVDVEPSGMGWRDYWGQGTQVTVSSGGGGSEVQLVESGGGLVQAGGSLRLSCAASGRPFSNYAMGWFRQAPGKEREFVAAISWSGGSTSYADSVKGRFTISRDNAKNTVYLQMNSPKPEDTAIYYCAAQFSGADYGFGRLGIRGYEYDYWGQGTQVTVSS	0.0003 s⁻¹

(Q) I have this binder here, LV1186xVδ2 (bispecific antibody, Orientation N-term-anti-Nectin-4 VHH-linker-anti-Vδ2 VHH (5C8); no Fc; also called Nectin-4xVδ2 bispecific VHH) EVQLVESGGGLVQAGGSLRLSCAASRSTFSLNIMGWYRQAPGKQREYVATITSGGSTNYADSVRGRFTISRDNAENTVYLQMDSLKPEDTAVYYCTAELVRRGPTTYWGRGTQVTVSSGGGGSEVQLVESGGGLVQAGGSLRLSCAASGRPFSNYAMGWFRQAPGKEREFVAAISWSGGSTSYADSVKGRFTISRDNAKNTVYLQMNSPKPEDTAIYYCAAQFSGADYGFGRLGIRGYEYDYWGQGTQVTVSS , and I need its recorded koff.
(A) 0.0017 s⁻¹
